- Study Target: UniProt P11715
- Procedure Summary: Inhibition of rat testicular microsomal P45017α (lyase activity)
- Type: biochemical
- Conditions: from IC50 values, rat vs human testicular microsomes
Measured Endpoint: Increase of potency towards the rat enzyme compared with human P45017α (fold)
Value expressed in fold; do not type the unit.

- Compound: "C[C@]12CCC(=O)C=C1CC[C@@H]1[C@@H]2CC[C@]2(C)C(n3ccnn3)=CC[C@@H]12 [Compound 21]"
  Study Target: "UniProt P11715"
  Endpoint Result: 2

Query block: Which measured Increase of potency towards the rat enzyme compared with human P45017α value corresponds to C[C@]12CCC(=O)C=C1CC[C@@H]1[C@@H]2CC[C@]2(C)C(n3cncn3)=CC[C@@H]12 [Compound 7] ?
Result block: 5

Query block: Next compound up: C[C@]12CC[C@H](O)CC1=CC[C@@H]1[C@@H]2CC[C@]2(C)C(n3cncn3)=CC[C@@H]12 [Compound 6]
Result block: 3.5

* * *

melting point values, listed per item

Query block: Which measured melting point value corresponds to C[C@]12CCC(=O)C=C1CC[C@@H]1[C@@H]2CC[C@]2(C)C(n3ccnn3)=CC[C@@H]12 ?
Result block: 118 to 120 °C

* * *

Ki values, listed per item
- Study Target: Human P45017α (Homo sapiens, UniProt P05093)
- Construct: Human testicular microsomes were prepared from human testes; from tissue; host or cells: human testes (untreated prostatic cancer patients undergoing orchidectomy), microsomal fraction
- Sequence (P05093 whole entry): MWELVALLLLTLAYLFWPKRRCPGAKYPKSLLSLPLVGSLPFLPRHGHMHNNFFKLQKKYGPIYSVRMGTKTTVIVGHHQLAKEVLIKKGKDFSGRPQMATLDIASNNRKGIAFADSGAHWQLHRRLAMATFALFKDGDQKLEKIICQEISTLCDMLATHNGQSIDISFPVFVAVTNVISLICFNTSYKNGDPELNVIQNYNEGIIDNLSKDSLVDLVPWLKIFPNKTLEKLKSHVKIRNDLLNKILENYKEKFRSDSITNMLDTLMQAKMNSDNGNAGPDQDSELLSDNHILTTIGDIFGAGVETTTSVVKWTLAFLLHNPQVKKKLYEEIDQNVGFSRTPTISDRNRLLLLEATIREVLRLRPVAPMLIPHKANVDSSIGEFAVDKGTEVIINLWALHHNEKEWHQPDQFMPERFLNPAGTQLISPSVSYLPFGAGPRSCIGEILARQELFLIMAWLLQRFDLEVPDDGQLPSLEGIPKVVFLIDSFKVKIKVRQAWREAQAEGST
- Procedure Summary: Inhibition of human testicular microsomal P45017α (lyase activity, release of C3H3COOH from [21-3H3]-17α-hydroxypregnenolone)
- Assay type: biochemical
- Conditions: Human P45017α Ki, from Lineweaver-Burk plots and slope replots; Km of 17α-hydroxypregnenolone 560 nM
- Procedure: The microsomes were stored at −70° C. until assayed. Just before use, the thawed microsomes were diluted with 0.1 M phosphate buffer (pH 7.4) to appropriate concentrations. This assay measures only the lyase activity of the P45017α enzyme. IC50 values for inhibitors were calculated from the linear regression line in the plot of logit of lyase activity versus log of inhibitor concentration. […] Each inhibitor was examined at three concentrations.
Hi, when you answer, please include the unit after the number. Thanks!

- Compound: "C[C@]12CCC(=O)C=C1CC[C@@H]1[C@@H]2CC[C@]2(C)C(n3ccnn3)=CC[C@@H]12 [Compound 21]"
  Study Target: "Human P45017α (Homo sapiens, UniProt P05093)"
  Ki: "8 nM"

Query block: Which measured Ki value corresponds to C[C@]12CC[C@H](O)CC1=CC[C@@H]1[C@@H]2CC[C@]2(C)C(n3cncn3)=CC[C@@H]12 [Compound 6] ?
Result block: 23 nM

* * *

IC50 values, listed per item
- Study Target: Rat P45017α (Rattus norvegicus, UniProt P11715)
- Sequence (P11715 whole entry): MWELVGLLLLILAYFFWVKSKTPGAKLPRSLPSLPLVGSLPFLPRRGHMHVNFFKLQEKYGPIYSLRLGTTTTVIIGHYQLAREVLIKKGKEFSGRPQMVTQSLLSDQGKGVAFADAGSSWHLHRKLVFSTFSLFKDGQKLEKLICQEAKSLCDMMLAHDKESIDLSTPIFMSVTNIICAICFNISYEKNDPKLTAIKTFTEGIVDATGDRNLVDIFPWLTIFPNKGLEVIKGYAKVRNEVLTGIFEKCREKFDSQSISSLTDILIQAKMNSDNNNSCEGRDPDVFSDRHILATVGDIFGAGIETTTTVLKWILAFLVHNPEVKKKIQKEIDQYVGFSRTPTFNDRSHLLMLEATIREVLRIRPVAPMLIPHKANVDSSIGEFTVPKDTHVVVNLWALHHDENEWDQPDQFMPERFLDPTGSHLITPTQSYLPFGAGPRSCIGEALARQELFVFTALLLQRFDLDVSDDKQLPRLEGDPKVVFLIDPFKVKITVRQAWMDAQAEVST
- Procedure Summary: Inhibition of rat testicular microsomal P45017α (lyase activity)
- Format: biochemical
- Conditions: rat testicular microsomes; mean ± SDM of at least two experiments; read-out: Rat P45017α IC50
- Protocol: The microsomes were stored at −70° C. until assayed. Just before use, the thawed microsomes were diluted with 0.1 M phosphate buffer (pH 7.4) to appropriate concentrations. This assay measures only the lyase activity of the P45017α enzyme. IC50 values for inhibitors were calculated from the linear regression line in the plot of logit of lyase activity versus log of inhibitor concentration. […] Each inhibitor was examined at three concentrations.
Value expressed in nM; do not type the unit.

See these solved cases before continuing.
- Molecule: "C[C@]12CCC(=O)C=C1CC[C@@H]1[C@@H]2CC[C@]2(C)C(n3ccnc3)=CC[C@@H]12 [Compound 12]"
  Endpoint Result: 8
- Molecule: "C[C@]12CC[C@H](O)CC1=CC[C@@H]1[C@@H]2CC[C@]2(C)C(n3cncn3)=CC[C@@H]12 [Compound 6]"
  Endpoint Result: 26
- Molecule: "C[C@]12CCC(=O)C=C1CC[C@@H]1[C@@H]2CC[C@]2(C)C(n3cncn3)=CC[C@@H]12 [Compound 7]"
  Endpoint Result: 11
- Molecule: "C[C@]12CCC(=O)C=C1CC[C@@H]1[C@@H]2CC[C@]2(C)C(n3ccnn3)=CC[C@@H]12 [Compound 21]"
  Endpoint Result: 9

Now consider a different molecule.
Query block: Which measured IC50 value corresponds to CC(=O)N1CCN(c2ccc(OCC3COC(Cn4ccnc4)(c4ccc(Cl)cc4Cl)O3)cc2)CC1 (centres unmarked) [Ketoconazole, reference compound] ?
Result block: 209
